system: BDF1 mice, P388 leukemia ip, median survival T/C; experiment: NCI In Vivo Anticancer Drug Screen. Data for tumor model P388 Leukemia (intraperitoneal) in B6D2F1 (BDF1) mice; conditions: endpoint: median survival time; dose: 25.0 mg/kg/injection; schedule: Q01DX009 (ip); vehicle: saline; higher = longer survival
Inconclusive results and toxic doses are left out.
For each of the molecules below, state its T/C.

Sample answers from the record:
## Task State T/C on BDF1 mice, P388 leukemia ip, median survival T/C. Entry: CSc1nc2nc(Cl)c(Cl)nc2[nH]1
## Result 96 % of control

## Task State T/C on BDF1 mice, P388 leukemia ip, median survival T/C. Entry: CCCCN(CCCC)P(=O)(N1CC1)N1CC1
## Result 118 % of control

Respectfully, I request T/C for each entry included below.
1. CCCCCOC(CN)C(Cl)(Cl)Cl (stereo unspecified)
2. CCCCN(CCCC)CCCC#N
3. CCCCN(C)c1ncnc2[nH]ncc12
4. COc1ccc2[nH]c(=O)c(C)c(C)c2c1

## Result
115 % of control
116 % of control
100 % of control
92 % of control

###

system: BDF1 mice, P388 leukemia ip, median survival T/C; test: NCI In Vivo Anticancer Drug Screen. Data for tumor model P388 Leukemia (intraperitoneal) in B6D2F1 (BDF1) mice; settings: endpoint: median survival time; dose: 100.0 mg/kg/injection; schedule: Q04DX003 (ip); vehicle: Klucel (hydroxypropylcellulose) (HPC)
Toxic doses and inconclusive results are not listed. Rule for the calls: active = survival T/C of 150% or more; inactive = T/C below 125% in these data.
Select the correct class. Options are active, inactive and nothing else.

Use the examples below as a reference point.
## Task // param item: CC(C)(C)OC(=O)C(CC(=O)O)=C(c1ccccc1)c1ccccc1 ; yields the recorded call
## Result inactive

## Task // param item: COC1=C(NCc2ccccc2)C(=O)C(OC)=C(NCc2ccccc2)C1=O ; yields the recorded call
## Result inactive

## Task // param item: O=[N+]([O-])c1cc([N+](=O)[O-])c2nn(-c3ccccc3)[n+]([O-])c2c1 ; yields the recorded call
## Result inactive

## Task // param item: CCN(c1ccccc1)c1ccc(C=O)cc1 ; yields the recorded call
## Result inactive

## Task // param item: N#CC(C#N)=Cc1cccc2ccccc12 ; yields the recorded call
## Result inactive

## Task // param item: CC(C)CC(C)CC(O)CC(C)C (configuration not stated) ; yields the recorded call
## Result inactive

---
## Task // param item: COc1ccc(/C=C/C(=O)c2ccccc2)cc1OC ; yields the recorded call
## Result inactive

## Task // param item: c1ccc(NNC(c2ccccc2)(c2ccccc2)c2ccccc2)cc1 ; yields the recorded call
## Result inactive

## Task // param item: O=CNC(Cc1ccc(N(CCCl)CCCl)cc1)C(=O)O (configuration not stated) ; yields the recorded call
## Result active

###

For each of the compounds below, state its T/C.
test system: BDF1 mice, P388 leukemia ip, median survival T/C; experiment: NCI In Vivo Anticancer Drug Screen. Data for tumor model P388 Leukemia (intraperitoneal) in B6D2F1 (BDF1) mice; conditions: endpoint: median survival time; dose: 100.0 mg/kg/injection; schedule: Q01DX001 (ip); vehicle: saline with Tween-80; higher = longer survival
Inconclusive results and toxic doses are left out.

Sample answers from the record:
## Task Look up and report measured T/C for this entry: CN(Cc1ccccc1)c1ccc(/C=C/c2ccnc3ccccc23)cc1
## Result 93 % of control

## Task Look up and report measured T/C for this entry: O=S(=O)(Nc1cc(Cl)c(NS(=O)(=O)c2ccccc2)cc1Cl)c1ccccc1
## Result 95 % of control

## Task Look up and report measured T/C for this entry: COc1cc(Br)c(/C=C(\C)[N+](=O)[O-])cc1OC
## Result 109 % of control

## Task Look up and report measured T/C for this entry: CNC(=O)Cc1[nH]ccc1C(=O)O
## Result 106 % of control

## Task Look up and report measured T/C for this entry: CC(C)NCc1ccccc1Sc1ccccc1CNC(C)C
## Result 103 % of control

## Task Look up and report measured T/C for this entry: Nc1nc(N)c(N=Cc2ccccc2)c(=O)[nH]1
## Result 108 % of control

Respectfully, I request T/C for each entry included below.
1. C/C(=C\COc1ccc2ccc(=O)oc2c1)C1=CC(=O)C(C)(C)O1
2. CCOc1cc(Cl)c(N)c(Cl)c1
3. S=c1[nH]ccn2cnnc12
4. c1ccc(N2CCCCCN2c2ccccc2)cc1
5. COC(=O)C1=C(C)NC(=O)NC1c1ccccc1 (configuration not stated)
6. O=C(O)C1C2C=CC(C2)C1C(F)(F)C(F)(F)C(F)(F)F (configuration not stated)

## Result
["100 % of control", "114 % of control", "88 % of control", "90 % of control", "100 % of control", "100 % of control"]
